Reported log10 Kd values for a set of binders
biological target: T1, His-tagged human HtrA1 protease domain (human, UniProt Q92743 161-367); test: SPR (BIACORE T200), huHtrA1-PD-His captured by anti-His, Fab injected
T1 construct: His-tagged protease domain; also called huHtrA1-PD-His; huHtrA1-PD
T1 sequence (Q92743 other isoform, or with tags, fused parts or gaps limits assumed): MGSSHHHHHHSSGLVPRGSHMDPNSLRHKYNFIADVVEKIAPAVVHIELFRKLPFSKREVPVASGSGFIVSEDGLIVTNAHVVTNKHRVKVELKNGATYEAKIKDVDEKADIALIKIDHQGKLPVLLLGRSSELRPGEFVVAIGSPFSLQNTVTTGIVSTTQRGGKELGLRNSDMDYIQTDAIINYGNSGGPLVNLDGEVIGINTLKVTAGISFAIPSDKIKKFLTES
On a log10 scale: recorded Kd, unit pM.

Consider the reported log10 Kd for these binders:
binder | log10 Kd
h15H6.v2 variant HC2 (HC-T30R) Fab (Fab, V domains shown, Fab-Flag tag fusion from 293T cells) VH: EVQLVQSGAEVKKPGASVKVSCKASGYTFRDSEMHWVRQAPGQGLEWIGGVDPETDGAAYNQKFKGRATITRDTSTSTAYLELSSLRSEDTAVYYCTRGYDYDYALDYWGQGTLVTVSS VL: DIQMTQSPSSLSASVGDRVTITCRASSSVNFIHWYQQKPGKAPKPLISATSNLASGVPSRFSGSGSGTDFTLTISSLQPEDFATYYCQQWSSNPWTFGQGTKVEIK | 2.65
h15H6.v2 variant HC1 (HC-T30K) Fab (Fab, V domains shown, Fab-Flag tag fusion from 293T cells) VH: EVQLVQSGAEVKKPGASVKVSCKASGYTFKDSEMHWVRQAPGQGLEWIGGVDPETDGAAYNQKFKGRATITRDTSTSTAYLELSSLRSEDTAVYYCTRGYDYDYALDYWGQGTLVTVSS VL: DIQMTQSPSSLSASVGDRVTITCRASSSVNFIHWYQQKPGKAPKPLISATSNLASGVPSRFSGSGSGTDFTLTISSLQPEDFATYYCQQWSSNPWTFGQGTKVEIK | 2.68
h15H6.v2 variant LC10 (LC-F32V, LC-S92K) Fab (Fab, V domains shown, Fab-Flag tag fusion from 293T cells) VH: EVQLVQSGAEVKKPGASVKVSCKASGYTFTDSEMHWVRQAPGQGLEWIGGVDPETDGAAYNQKFKGRATITRDTSTSTAYLELSSLRSEDTAVYYCTRGYDYDYALDYWGQGTLVTVSS VL: DIQMTQSPSSLSASVGDRVTITCRASSSVNVIHWYQQKPGKAPKPLISATSNLASGVPSRFSGSGSGTDFTLTISSLQPEDFATYYCQQWKSNPWTFGQGTKVEIK | 3.93

Qu. log10 Kd lookup needed for h15H6.v2 variant HC4 (HC-T28R) Fab (Fab, V domains shown, Fab-Flag tag fusion from 293T cells) VH: EVQLVQSGAEVKKPGASVKVSCKASGYRFTDSEMHWVRQAPGQGLEWIGGVDPETDGAAYNQKFKGRATITRDTSTSTAYLELSSLRSEDTAVYYCTRGYDYDYALDYWGQGTLVTVSS VL: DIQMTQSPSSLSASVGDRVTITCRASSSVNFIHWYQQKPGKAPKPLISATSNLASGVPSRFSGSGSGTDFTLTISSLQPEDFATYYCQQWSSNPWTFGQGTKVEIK , thanks.
Ans. 2.81

Qu. Try the binder h15H6.v2 Fab (Fab, V domains shown, Tested as Fab; also called parent; parental Fab) VH: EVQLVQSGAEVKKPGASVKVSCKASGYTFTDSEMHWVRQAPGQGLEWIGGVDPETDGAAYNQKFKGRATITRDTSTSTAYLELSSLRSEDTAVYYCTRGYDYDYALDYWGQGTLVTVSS VL: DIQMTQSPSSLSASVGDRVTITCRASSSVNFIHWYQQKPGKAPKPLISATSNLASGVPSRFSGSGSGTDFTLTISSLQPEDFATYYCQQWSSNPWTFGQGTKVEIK
Ans. 2.34
